Test system: Rattus norvegicus
assay: Evaluated for the prolactin inhibition at the dose 50 ug/kg administered intraperitoneally (treatment)
Format: functional
Define the label as MET when serum prolactin level is strictly less than 10 ng/mL and as NOT MET in all remaining cases.

Look over these answered cases.
compound: CCCN1C[C@H](CSC)C[C@@H]2c3cccc4[nH]cc(c34)C[C@H]21 [PERGOLIDE]
assayed system: Rattus norvegicus
class label: MET

compound: C[C@@H](CO)NC(=O)C1C=C2c3ccccc3CC[C@H]2N(C)C1 (stereo partly specified)
assayed system: Rattus norvegicus
class label: NOT MET

compound: C[C@@H](CO)NC(=O)[C@@H]1C=C2c3cccc4[nH]cc(c34)C[C@H]2N(C)C1.O=C(O)/C=C\C(=O)O [ERGONOVINE MALEATE]
assayed system: Rattus norvegicus
class label: NOT MET

input: State whether 10 ng/mL exceeds serum prolactin level recorded for CC1=C[C@@H]2c3cccc4[nH]cc(c34)C[C@H]2N(C)C1 .
output: NOT MET

input: State whether 10 ng/mL exceeds serum prolactin level recorded for CCCN1C[C@H](CSC)C[C@@H]2c3ccccc3CC[C@H]21.O=C(O)C(=O)O [DEPYRROLO PERGOLIDE] .
output: NOT MET

input: State whether 10 ng/mL exceeds serum prolactin level recorded for CC1=C[C@@H]2c3ccccc3CC[C@H]2N(C)C1.O=C(O)C(=O)O .
output: NOT MET

====

Tested on: Rattus norvegicus
assay: Evaluated for the Average turns per first 15 minutes after administration of 1 mg/kg intraperitoneally
Type: functional
assay context: route intraperitoneal
In this section we review reported Average turns/first 15 min values for a set of molecules.

molecule: CC1=C[C@@H]2c3ccccc3CC[C@H]2N(C)C1.O=C(O)C(=O)O
Average turns/first 15 min: 0
//
molecule: C[C@@H](CO)NC(=O)[C@@H]1C=C2c3cccc4[nH]cc(c34)C[C@H]2N(C)C1.O=C(O)/C=C\C(=O)O [ERGONOVINE MALEATE]
Average turns/first 15 min: 0
//
molecule: CCCN1C[C@H](CSC)C[C@@H]2c3ccccc3CC[C@H]21.O=C(O)C(=O)O [DEPYRROLO PERGOLIDE]
Average turns/first 15 min: 48
//
molecule: CC1=C[C@@H]2c3cccc4[nH]cc(c34)C[C@H]2N(C)C1
Average turns/first 15 min: 95

input: Quickly give me recorded Average turns/first 15 min for CCCN1C[C@H](CSC)C[C@@H]2c3cccc4[nH]cc(c34)C[C@H]21 [PERGOLIDE]
output: 102

input: Quickly give me recorded Average turns/first 15 min for C[C@@H](CO)NC(=O)C1C=C2c3ccccc3CC[C@H]2N(C)C1 (stereo partly specified)
output: 0

====

System: Rattus norvegicus
assay: Evaluated for the rat turning after administration of 1 mg/kg intraperitoneally
Format: functional
assay context: route intraperitoneal
readout label: Rat turning
Put your answer as a value accompanied by its unit after it.

Some solved entries appear below for comparison.
compound: C[C@@H](CO)NC(=O)C1C=C2c3ccccc3CC[C@H]2N(C)C1 (stereo partly specified)
Rat turning: 0%

compound: CC1=C[C@@H]2c3ccccc3CC[C@H]2N(C)C1.O=C(O)C(=O)O
Rat turning: 0%

compound: CCCN1C[C@H](CSC)C[C@@H]2c3cccc4[nH]cc(c34)C[C@H]21 [PERGOLIDE]
Rat turning: 100%

compound: CC1=C[C@@H]2c3cccc4[nH]cc(c34)C[C@H]2N(C)C1
Rat turning: 100%

compound: CCCN1C[C@H](CSC)C[C@@H]2c3ccccc3CC[C@H]21.O=C(O)C(=O)O [DEPYRROLO PERGOLIDE]
Rat turning: 67%

input: Quickly give me recorded Rat turning for C[C@@H](CO)NC(=O)[C@@H]1C=C2c3cccc4[nH]cc(c34)C[C@H]2N(C)C1.O=C(O)/C=C\C(=O)O [ERGONOVINE MALEATE]
output: 0%
